system: Histophilus somni; assay: minimum inhibitory concentration (MIC); conditions: isolate (source animal id): 127
measure.name: minimum inhibitory concentration

COc1cc(NS(=O)(=O)c2ccc(N)cc2)nc(OC)n1 :: ≤ 256 µg/mL
CC1(C)S[C@@H]2[C@H](NC(=O)Cc3ccccc3)C(=O)N2[C@H]1C(=O)O :: ≤ 0.12 µg/mL
CN[C@@H]1[C@H](O)[C@H](NC)[C@H]2O[C@@]3(O)C(=O)C[C@@H](C)O[C@H]3O[C@@H]2[C@H]1O :: > 64 µg/mL

Prompt: Output minimum inhibitory concentration of C=C[C@]1(C)C[C@@H](OC(=O)CSCCN(CC)CC)[C@]2(C)[C@H](C)CC[C@]3(CCC(=O)[C@H]32)[C@@H](C)[C@@H]1O
Response: 1 µg/mL

* * *

tested on: Mannheimia haemolytica; test: minimum inhibitory concentration (MIC); conditions: isolate (source animal id): 37
measure.name: minimum inhibitory concentration (µg/mL)
Numeric answer only, unit µg/mL assumed.

CNC(C)C1CCC(N)C(OC2C(N)CC(N)C(OC3OCC(C)(O)C(NC)C3O)C2O)O1 (stereo not given) :: 4

Now for the compound whose minimum inhibitory concentration we want.
Prompt: Output minimum inhibitory concentration of CC[C@H]1OC(=O)C[C@@H](O)[C@H](C)[C@@H](O[C@@H]2O[C@H](C)[C@@H](O)[C@H](N(C)C)[C@H]2O)[C@@H](CCN2CCCCC2)C[C@@H](C)C(=O)/C=C/C(C)=C/[C@@H]1CN1CCCCC1
Response: 16

* * *

system: Histophilus somni; assay: minimum inhibitory concentration (MIC); settings: isolate (source animal id): 248
In this section, each of the molecules is paired with its reported minimum inhibitory concentration.

Examples from the recorded data:
CCN1CCN(c2cc3c(cc2F)c(=O)c(C(=O)O)cn3C2CC2)CC1 [Enrofloxacin] :: ≤ 0.12 µg/mL
COc1cc(NS(=O)(=O)c2ccc(N)cc2)nc(OC)n1 [sulfadimethoxine] :: ≤ 256 µg/mL
CN(C)[C@@H]1C(O)=C(C(N)=O)C(=O)[C@@]2(O)C(O)=C3C(=O)c4c(O)cccc4[C@@](C)(O)[C@H]3C[C@@H]12 [Tetracycline] :: ≤ 0.5 µg/mL

Now for the molecule whose minimum inhibitory concentration we want.
Prompt: Output minimum inhibitory concentration of CN[C@@H]1[C@H](O)[C@H](NC)[C@H]2O[C@@]3(O)C(=O)C[C@@H](C)O[C@H]3O[C@@H]2[C@H]1O [Spectinomycin]
Response: ≤ 8 µg/mL

* * *

system: Pasteurella multocida; assay: minimum inhibitory concentration (MIC); details: isolate (source animal id): 278
In this section, each of the compounds is paired with its reported minimum inhibitory concentration.

Examples from the recorded data:
CCCNC[C@]1(O)[C@H](C)O[C@@H](O[C@H]2[C@H](C)[C@@H](O[C@@H]3O[C@H](C)C[C@H](N(C)C)[C@H]3O)[C@](C)(O)C[C@@H](C)CN[C@H](C)[C@@H](O)[C@](C)(O)[C@@H](CC)OC(=O)[C@@H]2C)C[C@@]1(C)OC [Tulathromycin] :: ≤ 8 µg/mL
NC[C@@H]1O[C@H](O[C@H]2[C@@H](O)[C@H](O[C@@H]3[C@@H](O)[C@H](N)C[C@H](N)[C@H]3O[C@H]3O[C@H](CN)[C@@H](O)[C@H](O)[C@H]3N)O[C@@H]2CO)[C@H](N)[C@@H](O)[C@@H]1O [Neomycin] :: > 32 µg/mL
CN1C[C@@H]2C[C@H]1CN2c1cc2c(cc1F)c(=O)c(C(=O)O)cn2C1CC1 [Danofloxacin] :: > 1 µg/mL
CN[C@@H]1[C@H](O)[C@H](NC)[C@H]2O[C@@]3(O)C(=O)C[C@@H](C)O[C@H]3O[C@@H]2[C@H]1O [Spectinomycin] :: 32 µg/mL
CC1(C)S[C@@H]2[C@H](NC(=O)Cc3ccccc3)C(=O)N2[C@H]1C(=O)O [Penicillin] :: ≤ 0.12 µg/mL

Now for the compound whose minimum inhibitory concentration we want.
Prompt: Output minimum inhibitory concentration of CC[C@H]1OC(=O)C[C@@H](O)[C@H](C)[C@@H](O[C@@H]2O[C@H](C)[C@@H](O[C@H]3C[C@@](C)(O)[C@@H](O)[C@H](C)O3)[C@H](N(C)C)[C@H]2O)[C@@H](CC=O)C[C@@H](C)C(=O)/C=C/C(C)=C/[C@@H]1CO[C@@H]1O[C@H](C)[C@@H](O)[C@@H](OC)[C@H]1OC [Tylosin]
Response: > 32 µg/mL

* * *

In this section, each of the molecules is paired with its reported minimum inhibitory concentration.
tested on: Escherichia coli; assay: minimum inhibitory concentration (MIC); conditions: isolate (source animal id): 10

Examples from the recorded data:
CN1C[C@@H]2C[C@H]1CN2c1cc2c(cc1F)c(=O)c(C(=O)O)cn2C1CC1 :: ≤ 0.12 µg/mL
CN(C)[C@@H]1C(O)=C(C(N)=O)C(=O)[C@@]2(O)C(O)=C3C(=O)c4c(O)cccc4[C@@](C)(O)[C@H]3C[C@@H]12 :: > 8 µg/mL

Prompt: Output minimum inhibitory concentration of C=C[C@]1(C)C[C@@H](OC(=O)CSCCN(CC)CC)[C@]2(C)[C@H](C)CC[C@]3(CCC(=O)[C@H]32)[C@@H](C)[C@@H]1O
Response: > 32 µg/mL

Prompt: Output minimum inhibitory concentration of CCN1CCN(c2cc3c(cc2F)c(=O)c(C(=O)O)cn3C2CC2)CC1
Response: ≤ 0.12 µg/mL

* * *

In this section, each of the compounds is paired with its reported minimum inhibitory concentration.
tested on: Histophilus somni; assay: minimum inhibitory concentration (MIC); conditions: isolate (source animal id): 266
Numeric answer only, unit µg/mL assumed.

CN(C)[C@@H]1C(O)=C(C(N)=O)C(=O)[C@@]2(O)C(O)=C3C(=O)c4c(O)cccc4[C@@](C)(O)[C@H]3C[C@@H]12 [Tetracycline] :: 2

Prompt: Output minimum inhibitory concentration of CC[C@H]1OC(=O)C[C@@H](O)[C@H](C)[C@@H](O[C@@H]2O[C@H](C)[C@@H](O[C@H]3C[C@@](C)(O)[C@@H](O)[C@H](C)O3)[C@H](N(C)C)[C@H]2O)[C@@H](CC=O)C[C@@H](C)C(=O)/C=C/C(C)=C/[C@@H]1CO[C@@H]1O[C@H](C)[C@@H](O)[C@@H](OC)[C@H]1OC [Tylosin]
Response: 8

* * *

In this section, each of the compounds is paired with its reported minimum inhibitory concentration.
tested on: Pasteurella multocida; assay: minimum inhibitory concentration (MIC); conditions: isolate (source animal id): 270

CNC(C)C1CCC(N)C(OC2C(N)CC(N)C(OC3OCC(C)(O)C(NC)C3O)C2O)O1 (stereo not given) [Gentamicin] :: 4 µg/mL
CN1C[C@@H]2C[C@H]1CN2c1cc2c(cc1F)c(=O)c(C(=O)O)cn2C1CC1 [Danofloxacin] :: > 1 µg/mL
CCCN1C[C@H](C)[C@@H](O)[C@](C)(O)[C@@H](CC)OC(=O)[C@H](C)[C@@H](O[C@H]2C[C@@](C)(OC)[C@@H](O)[C@H](C)O2)[C@H](C)[C@@H](O[C@@H]2O[C@H](C)C[C@H](N(C)C)[C@H]2O)[C@](C)(O)C[C@H]1C [Gamithromycin] :: 8 µg/mL

Prompt: Output minimum inhibitory concentration of CC[C@H]1OC(=O)C[C@@H](O)[C@H](C)[C@@H](O[C@@H]2O[C@H](C)[C@@H](O[C@H]3C[C@@](C)(O)[C@@H](O)[C@H](C)O3)[C@H](N(C)C)[C@H]2O)[C@@H](CC=O)C[C@@H](C)C(=O)/C=C/C(C)=C/[C@@H]1CO[C@@H]1O[C@H](C)[C@@H](O)[C@@H](OC)[C@H]1OC [Tylosin]
Response: > 32 µg/mL

Prompt: Output minimum inhibitory concentration of CC[C@H]1OC(=O)C[C@@H](O)[C@H](C)[C@@H](O[C@@H]2O[C@H](C)[C@@H](O)[C@H](N(C)C)[C@H]2O)[C@@H](CCN2C[C@H](C)C[C@H](C)C2)C[C@@H](C)C(=O)/C=C/C(C)=C/[C@@H]1CO[C@@H]1O[C@H](C)[C@@H](O)[C@@H](OC)[C@H]1OC [Tilmicosin]
Response: > 16 µg/mL

* * *

In this section, each of the molecules is paired with its reported minimum inhibitory concentration.
system: Escherichia coli; assay: minimum inhibitory concentration (MIC); conditions: isolate (source animal id): 143
Numeric answer only, unit µg/mL assumed.

Prompt: Output minimum inhibitory concentration of CN1C[C@@H]2C[C@H]1CN2c1cc2c(cc1F)c(=O)c(C(=O)O)cn2C1CC1
Response: 1

Prompt: Output minimum inhibitory concentration of CC[C@H]1OC(=O)C[C@@H](O)[C@H](C)[C@@H](O[C@@H]2O[C@H](C)[C@@H](O)[C@H](N(C)C)[C@H]2O)[C@@H](CCN2CCCCC2)C[C@@H](C)C(=O)/C=C/C(C)=C/[C@@H]1CN1CCCCC1
Response: 8
